test: physchem; conditions: water, thermodynamic from solid
Measured Property: solubility

Tell me solubility reported for NS(=O)(=O)OC[C@@H]1C[C@@H](n2ccc3c(N[C@H]4CCc5ccccc54)ncnc32)C[C@@H]1O [Form H]
< 1000 µg/mL

###

experiment: Aqueous solubility estimate in water by solvent addition method; details: thermodynamic from solid
Measured Property: solubility

# return recorded solubility for input NS(=O)(=O)OC[C@@H]1C[C@@H](n2ccc3c(N[C@H]4CCc5ccccc54)ncnc32)C[C@@H]1O [Form M]
< 1000 µg/mL
